target: Carbonic anhydrase 9 (Homo sapiens); experiment: Inhibition of recombinant human carbonic anhydrase 9 incubated for 15 mins prior to testing by stopped flow CO2 hydration assay
Exercise: for every item that follows, state its recorded Ki.

• COc1cccc2c(=O)n(-c3cccc(S(N)(=O)=O)c3)c(S)nc12 = 0.0156 µM

Value sought for every listed molecule: Ki.
1. NS(=O)(=O)c1cccc(-n2c(S)nc3ccccc3c2=O)c1
2. COc1ccc2nc(S)n(-c3cccc(S(N)(=O)=O)c3)c(=O)c2c1
3. Cc1cccc2c(=O)n(-c3cccc(S(N)(=O)=O)c3)c(S)nc12
4. NS(=O)(=O)c1cccc(-n2c(S)nc3ccc(F)cc3c2=O)c1
5. NS(=O)(=O)c1cccc(-n2c(S)nc3c(Br)cccc3c2=O)c1
6. NS(=O)(=O)c1cccc(-n2c(S)nc3c(Cl)cccc3c2=O)c1
7. NS(=O)(=O)c1cccc(-n2c(S)nc3ccc(I)cc3c2=O)c1
8. NS(=O)(=O)c1cccc(-n2c(S)nc3cc(Cl)ccc3c2=O)c1

Marked response:
1. 0.0761 µM
2. 0.013 µM
3. 0.0252 µM
4. 0.0044 µM
5. 0.004 µM
6. 0.0095 µM
7. 0.0015 µM
8. 0.0154 µM

Items follow; give Ki for each.
1. Cc1cc2nc(S)n(-c3cccc(S(N)(=O)=O)c3)c(=O)c2cc1C
2. NS(=O)(=O)c1cccc(-n2c(S)nc3ccc(Cl)cc3c2=O)c1

Marked response:
0.0345 µM
0.0451 µM
